Organism: Rattus norvegicus
Procedure summary: Open TG-GATES - Regimen: Single
Format: toxicity, organism-based, Sprague-Dawley
Set-up: regimen Single, gender Male, age 6 weeks
Condition description: in vivo, po, 1000 mg/kg, 9 h, tissue Blood, route gavage, dose level High
This listing pairs molecules with measured Eos.
Answer with the figure and its unit, nothing else.

Reference set, count: 2
Chemical structure	Eos
Cc1nnc2n1-c1ccc(Cl)cc1C(c1ccccc1Cl)=NC2	0.6%
CN/C(=N/CCSCc1nc[nH]c1C)NC#N	1%

Look up Eos for this molecule: COC(=O)C1=C(C)NC(C)=C(C(=O)OC)C1c1ccccc1[N+](=O)[O-] 0.4%

Eos lookup needed for O=C(OC[C@H]1O[C@@H](OC(=O)c2cc(O)c(O)c(OC(=O)c3cc(O)c(O)c(O)c3)c2)[C@H](OC(=O)c2cc(O)c(O)c(OC(=O)c3cc(O)c(O)c(O)c3)c2)[C@@H](OC(=O)c2cc(O)c(O)c(OC(=O)c3cc(O)c(O)c(O)c3)c2)[C@@H]1OC(=O)c1cc(O)c(O)c(OC(=O)c2cc(O)c(O)c(O)c2)c1)c1cc(O)c(O)c(OC(=O)c2cc(O)c(O)c(O)c2)c1 , thanks. 1%

Consider the molecule shown here: CNC(=C[N+](=O)[O-])NCCSCc1ccc(CN(C)C)o1 What is its recorded Eos? 1%

* * *

Species: Rattus norvegicus
Procedure summary: Open TG-GATES - Regimen: Single
Format: toxicity, organism-based, Sprague-Dawley
Design: regimen Single, gender Male, age 6 weeks
Condition description: in vivo, po, 0 mg/kg, 6 h, tissue Blood, route gavage, dose level Control
Parameter measured: WBC (x10_2/uL)
Please respond with the number in x10_2/uL and leave the unit unwritten.

Take a look at these entries with their results.
Compound	Uom	Reported result
NC1=NC(=O)C(c2ccccc2)O1 (centres undefined)	x10_2/uL	88.4
CCOc1ccc(NC(C)=O)cc1	x10_2/uL	104.2
CNC(=C[N+](=O)[O-])NCCSCc1ccc(CN(C)C)o1	x10_2/uL	97.4
Nc1c2c(nc3ccccc13)CCCC2	x10_2/uL	96.6
COC(=O)C1=C(C)NC(C)=C(C(=O)OC)C1c1ccccc1[N+](=O)[O-]	x10_2/uL	94.9
O=C(OC[C@H]1O[C@@H](OC(=O)c2cc(O)c(O)c(OC(=O)c3cc(O)c(O)c(O)c3)c2)[C@H](OC(=O)c2cc(O)c(O)c(OC(=O)c3cc(O)c(O)c(O)c3)c2)[C@@H](OC(=O)c2cc(O)c(O)c(OC(=O)c3cc(O)c(O)c(O)c3)c2)[C@@H]1OC(=O)c1cc(O)c(O)c(OC(=O)c2cc(O)c(O)c(O)c2)c1)c1cc(O)c(O)c(OC(=O)c2cc(O)c(O)c(O)c2)c1	x10_2/uL	109.6
CN(C)CCC(c1ccc(Cl)cc1)c1ccccn1 (centres undefined)	x10_2/uL	82.5
Cc1nnc2n1-c1ccc(Cl)cc1C(c1ccccc1Cl)=NC2	x10_2/uL	82

# ---- query compound ----
Requested read-out: WBC. Entry: CN1C(=O)CCS(=O)(=O)C1c1ccc(Cl)cc1 (centres undefined) 97

* * *

Reported GLC is given for each of the following compounds.
Organism: Rattus norvegicus
Procedure summary: Open TG-GATES - Regimen: Daily Repeat
Format: toxicity, organism-based, Sprague-Dawley
Design: regimen Daily Repeat, gender Male, age 6 weeks
Condition description: in vivo, po, 100 mg/kg, 72 h, tissue Plasma, route gavage, dose level Low, time 3 day
Reply numerically in mg/dL, unit not repeated.

Look at this compound and give its reported GLC. Cc1nnc2n1-c1ccc(Cl)cc1C(c1ccccc1Cl)=NC2 [TRIAZOLAM] 166.2
